The measurements presented in this section are drawn from patent US11286247B2.

Consider the following molecules and their measured average body weight D21 readings.
- Test system: BxPC-3 xenografts
- EXPERIMENTAL_PROTOCOL: Anti-tumor growth efficacy in pancreatic tumor BxPC3 nude mice xenograft model
- Assay type: in vivo
- TEST_CONDITIONS: D21; oral: KPT-330 and 38 10 mg/kg tiw, 79 2.5 mg/kg tiw, 62 10 mg/kg qd

MOLECULE	TEST_SYSTEM	UNIT_TEXT	average body weight D21
O=C(/C=C\n1cnc(-c2cc(C(F)(F)F)cc(C(F)(F)F)c2)n1)NNc1cnccn1 [KPT-330, Selinexor, reference compound]	BxPC-3 xenografts	g	19.97
O=C(/C=C\n1cnc(-c2cc(C(F)(F)F)cc(C(F)(F)F)c2)n1)NN1CCOCC1=O	BxPC-3 xenografts	g	20.80
CN1C(=O)CCN1C(=O)/C=C\n1cnc(-c2cc(C(F)(F)F)cc(C(F)(F)F)c2)n1	BxPC-3 xenografts	g	21.08
COC1=CC(=O)N(NC(=O)/C=C\n2cnc(-c3cc(C(F)(F)F)cc(C(F)(F)F)c3)n2)C1	BxPC-3 xenografts	g	21.30
